Biological target: purified CD26 (Homo sapiens)
Construct: made in house
Sequence (P27487 whole entry): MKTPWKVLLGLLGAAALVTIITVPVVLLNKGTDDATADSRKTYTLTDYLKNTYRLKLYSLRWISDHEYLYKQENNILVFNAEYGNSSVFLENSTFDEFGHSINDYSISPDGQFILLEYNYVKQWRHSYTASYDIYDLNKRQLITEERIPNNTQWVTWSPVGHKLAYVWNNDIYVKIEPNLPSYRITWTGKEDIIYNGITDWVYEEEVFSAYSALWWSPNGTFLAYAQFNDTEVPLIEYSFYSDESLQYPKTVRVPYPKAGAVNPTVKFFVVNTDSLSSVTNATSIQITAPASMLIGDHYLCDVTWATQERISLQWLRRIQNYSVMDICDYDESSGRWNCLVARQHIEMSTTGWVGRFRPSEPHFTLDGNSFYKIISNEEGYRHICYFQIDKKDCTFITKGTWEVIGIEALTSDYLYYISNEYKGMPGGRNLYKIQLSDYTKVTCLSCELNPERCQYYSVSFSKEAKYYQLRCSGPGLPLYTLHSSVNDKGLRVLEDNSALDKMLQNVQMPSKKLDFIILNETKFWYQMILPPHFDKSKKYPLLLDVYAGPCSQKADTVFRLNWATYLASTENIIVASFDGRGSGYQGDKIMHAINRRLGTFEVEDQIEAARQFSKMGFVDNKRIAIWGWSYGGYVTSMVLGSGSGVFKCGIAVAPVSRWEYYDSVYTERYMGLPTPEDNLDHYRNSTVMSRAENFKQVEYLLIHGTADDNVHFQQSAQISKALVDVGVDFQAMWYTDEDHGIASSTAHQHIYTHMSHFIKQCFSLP
Test: Conversion of peptide prodrugs to parent compound by purified CD26 (HPLC)
Assay type: biochemical
Details: Table 1; purified CD26 1.5 mUnits; 1 h
Protocol: To reveal whether CD26 recognizes such synthetic di/tripeptide derivatives of lipophilic nucleoside analogues as a substrate, 50 μM CAM-405 or CAM-431 was exposed to 5.7 mUnits of purified CD26, and the conversion of CAM-405 or CAM-431 to respectively CAM-212 or CAM-403 (Val-NAP-TSAO) was recorded in function of incubation time by HPLC analysis. […] The inhibitory activity of any dipeptide can be evaluated by the above mentioned assay. […]
quantityKind: Conversion % to parent compound by purified CD26, 1 h

# molecule, recordedMeasurement
records = [
    ("Cc1cn(C2OC(CO[Si](C)(C)C(C)(C)C)C3(OS(=O)(=O)C=C3N)C2O[Si](C)(C)C(C)(C)C)c(=O)n(CCCNC(=O)[C@H](C)NC(=O)[C@@H](N)C(C)C)c1=O (some centres unmarked)", "0%"),
    ("Cc1cn(C2OC(CO[Si](C)(C)C(C)(C)C)C3(OS(=O)(=O)C=C3N)C2O[Si](C)(C)C(C)(C)C)c(=O)n(CCCNC(=O)C(Cc2ccccc2)NC(=O)C(N)C(C)C)c1=O (centres unmarked)", "0%"),
    ("Cc1cn(C2OC(CO[Si](C)(C)C(C)(C)C)C3(OS(=O)(=O)C=C3N)C2O[Si](C)(C)C(C)(C)C)c(=O)n(CCCNC(=O)[C@@H]2CCCN2C(=O)[C@@H](N)C(C)C)c1=O (some centres unmarked)", "37%"),
    ("Cc1cn(C2OC(CO[Si](C)(C)C(C)(C)C)C3(OS(=O)(=O)C=C3N)C2O[Si](C)(C)C(C)(C)C)c(=O)n(CCCNC(=O)[C@@H]2CC(O)CN2C(=O)[C@@H](N)C(C)C)c1=O (some centres unmarked)", "4.1%"),
    ("CNC(C(=O)N1CCCC1C(=O)NC(C(=O)NCCCn1c(=O)c(C)cn(C2OC(CO[Si](C)(C)C(C)(C)C)C3(OS(=O)(=O)C=C3N)C2O[Si](C)(C)C(C)(C)C)c1=O)C(C)C)C(C)C (centres unmarked)", "0%"),
    ("Cc1cn(C2OC(CO[Si](C)(C)C(C)(C)C)C3(OS(=O)(=O)C=C3N)C2O[Si](C)(C)C(C)(C)C)c(=O)n(CCCNC(=O)[C@H]2CCCN2C(=O)[C@@H](N)C(C)C)c1=O (some centres unmarked)", "0%"),
    ("Cc1cn(C2OC(CO[Si](C)(C)C(C)(C)C)C3(OS(=O)(=O)C=C3N)C2O[Si](C)(C)C(C)(C)C)c(=O)n(CCCNC(=O)CNC(=O)[C@@H](N)C(C)C)c1=O (some centres unmarked)", "0%"),
    ("Cc1cn(C2OC(CO[Si](C)(C)C(C)(C)C)C3(OS(=O)(=O)C=C3N)C2O[Si](C)(C)C(C)(C)C)c(=O)n(CCCNC(=O)[C@@H](NC(=O)OCc2ccccc2)C(C)C)c1=O (some centres unmarked)", "0%"),
    ("Cc1cn(C2OC(CO[Si](C)(C)C(C)(C)C)C3(OS(=O)(=O)C=C3N)C2O[Si](C)(C)C(C)(C)C)c(=O)n(CCCNC(=O)C(CC(C)C)NC(=O)C(N)C(C)C)c1=O (centres unmarked)", "0%"),
    ("Cc1cn(C2OC(CO[Si](C)(C)C(C)(C)C)C3(OS(=O)(=O)C=C3N)C2O[Si](C)(C)C(C)(C)C)c(=O)n(CCCNC(=O)[C@@H]2CCCN2C(=O)[C@@H](N)Cc2ccc(O)cc2)c1=O (some centres unmarked)", "43%"),
    ("Cc1cn(C2OC(CO[Si](C)(C)C(C)(C)C)C3(OS(=O)(=O)C=C3N)C2O[Si](C)(C)C(C)(C)C)c(=O)n(CCCNC(=O)[C@@H]2CCCN2C(=O)CN)c1=O (some centres unmarked)", "5%"),
]
